All figures here come from patent US20240141072A1.

MEASUREMENT_TARGET: T1, biotinylated human DLL3 protein expressed as a human IgG1 fusion protein (human, UniProt Q9NYJ7 27-492, limits assumed, biotinylated)
T1 sequence: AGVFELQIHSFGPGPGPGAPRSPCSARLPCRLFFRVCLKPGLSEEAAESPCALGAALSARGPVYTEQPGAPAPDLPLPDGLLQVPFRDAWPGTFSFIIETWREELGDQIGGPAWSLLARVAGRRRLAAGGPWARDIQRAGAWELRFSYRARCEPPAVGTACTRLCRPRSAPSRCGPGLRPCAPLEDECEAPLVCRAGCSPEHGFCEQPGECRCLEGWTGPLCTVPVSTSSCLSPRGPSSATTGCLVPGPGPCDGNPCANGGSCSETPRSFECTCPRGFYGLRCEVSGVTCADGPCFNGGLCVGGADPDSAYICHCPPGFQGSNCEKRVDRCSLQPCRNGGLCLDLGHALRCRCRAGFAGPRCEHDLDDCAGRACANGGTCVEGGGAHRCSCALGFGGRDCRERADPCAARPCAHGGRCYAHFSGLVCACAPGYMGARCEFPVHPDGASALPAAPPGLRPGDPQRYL
ASSAY_NOTES: Octet BLI, 60/20/6.67/2.22 nM
Here, each record is paired with measured Kd data.
Please reply with the bare figure in nM and do not write the unit itself.

1) 2E02 anti-DLL3 trispecific protein (other, not shown: linker 1808, anti-albumin sdAb, linker 1808, anti-CD3 fragment, His6 1819) EVQLVESGGGLVQPGGSLTLSCVASGSTSAINAMGWYRRAPGKQRELVAGISSDGSKVYVDSVKGRFTISRDNAKNSVYLQMNSLRAEDTAVYYCYYFRTVSGSSQRYWGQGTLVTVSS    4.4

Would you kindly look at the next entry?
Record 3A011 anti-DLL3 trispecific protein (other, not shown: linker 1808, anti-albumin sdAb, linker 1808, anti-CD3 fragment, His6 1819) EVQLVESGGGLVQPGGSLTLSCAASGSSVSFLSLAWYRQAPGKKRELVAGISTDGSTDYIDSVKGRFTISRDNAKNSVYLQMNSLRAEDTAVYYCYAYRWRTRYTYWGQGTLVTVSS , field Kd: 7.3
